Target: Human TRPC6 (Homo sapiens, UniProt Q9Y210)
Construct: expressed in transfected cells
Sequence (Q9Y210 whole entry): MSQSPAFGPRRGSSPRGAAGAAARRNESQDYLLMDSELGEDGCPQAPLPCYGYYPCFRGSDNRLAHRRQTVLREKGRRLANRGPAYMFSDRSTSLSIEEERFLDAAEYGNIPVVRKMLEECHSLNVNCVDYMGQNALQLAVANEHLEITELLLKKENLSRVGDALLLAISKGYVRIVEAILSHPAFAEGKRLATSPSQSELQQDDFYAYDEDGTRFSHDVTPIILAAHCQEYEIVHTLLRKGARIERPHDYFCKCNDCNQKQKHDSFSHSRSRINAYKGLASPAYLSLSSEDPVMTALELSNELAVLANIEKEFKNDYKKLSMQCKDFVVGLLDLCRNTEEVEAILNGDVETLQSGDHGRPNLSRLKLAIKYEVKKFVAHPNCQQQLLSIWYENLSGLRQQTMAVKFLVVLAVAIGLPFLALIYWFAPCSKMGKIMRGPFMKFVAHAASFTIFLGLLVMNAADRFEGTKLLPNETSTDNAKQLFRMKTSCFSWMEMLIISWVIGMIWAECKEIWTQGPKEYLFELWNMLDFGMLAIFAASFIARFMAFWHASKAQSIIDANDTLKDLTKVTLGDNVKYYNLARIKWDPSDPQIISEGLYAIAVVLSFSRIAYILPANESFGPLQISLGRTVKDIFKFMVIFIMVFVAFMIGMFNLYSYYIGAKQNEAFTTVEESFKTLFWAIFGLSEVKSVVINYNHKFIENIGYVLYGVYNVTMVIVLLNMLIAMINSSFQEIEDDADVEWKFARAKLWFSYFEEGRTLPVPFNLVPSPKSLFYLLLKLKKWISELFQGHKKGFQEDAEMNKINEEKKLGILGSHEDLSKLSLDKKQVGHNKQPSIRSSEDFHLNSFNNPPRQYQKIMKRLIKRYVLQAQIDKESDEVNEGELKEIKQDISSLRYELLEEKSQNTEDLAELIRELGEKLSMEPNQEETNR
Experiment: Evaluation of TRPC6 channel inhibitory activity (1), FLIPR Calcium 5 Assay Kit, OAG stimulation (Compound Nos. 1-1293)
Format: cell-based
Conditions: Human TRPC6 stably-expressing cells, OAG 30 μM, FLIPR Calcium 5 Assay Kit; read-out: Inhibitory activity (pIC50 class) (converted)
For each of the compounds below, state its IC50.

[[record]]
compound = "Cc1nn(C2CCCCC2)cc1Oc1cc(C#N)ccc1-c1ncc(CCN)cn1 [compound 864]"
result = "10 to 1000 nM"

[[record]]
compound = "Cn1nc(C2CC2)cc1Oc1cc(C#N)ccc1-c1ccc(C(N)C#N)cn1 (stereo not shown) [compound 422]"
result = "10 to 1000 nM"

[[record]]
compound = "COc1ccccc1-c1cc(Oc2cc(C#N)ccc2-c2ccc(C(O)CN)cn2)n(C)n1 (stereo not shown) [compound 320]"
result = "< 10 nM"


Fill in IC50 for each of the 4 compounds listed.
1. Cc1sc(N2CCOCC2)nc1C(=O)c1cc(C#N)ccc1-c1ncc(CCN)cn1 [compound 1070]
2. Cc1nc(-c2ccccc2F)cn1Cc1cc(C#N)ccc1-c1ccc(CCN)cn1 [compound 1152]
3. N#Cc1ccc(-c2ccc(CCN)cn2)c(Oc2nnc(N3CCCC3)s2)c1 [compound 719]
4. N#Cc1ccc(-c2ccc(CCN)nc2)c(Oc2cc(N3CCCCC3)cnn2)c1 [Compound 81]

Response:
1. > 1000 nM
2. < 10 nM
3. 10 to 1000 nM
4. > 1000 nM

====

Exercise: state measured IC50 for each of the compounds provided.
Target: Human TRPC6 (Homo sapiens, UniProt Q9Y210)
Construct: expressed in transfected cells
Test: Evaluation of TRPC6 channel inhibitory activity (1), FLIPR Calcium 5 Assay Kit, OAG stimulation (Compound Nos. 1-1293)
Type: cell-based
Conditions: Human TRPC6 stably-expressing cells, OAG 30 μM, FLIPR Calcium 5 Assay Kit; read-out: Inhibitory activity (pIC50 class) (converted)
Method: Evaluation of TRPC6 Channel Inhibitory Activity (1) (Compound Nos. 1-1293) In order to investigate TRPC6 channel inhibitory activity of the compounds, evaluation was conducted using FLIPR® Calcium 5 Assay Kit (Molecular Devices) in accordance with the following procedure. […] A volume of 12.5 μL of a compound solution was added into each well while the fluorescence was measured with FLIPR tetra. […]

[[record]]
smiles_code = "COc1cccnc1-c1cc(Oc2cc(C#N)ccc2-c2ccc([C@H](O)CN)cn2)cc(C)n1"
parameter = "IC50"
result = "10 to 1000 nM"


Hi there! I need IC50 for each item below, if you can.
1. N#Cc1ccc(-c2ncc(CN)cn2)c(Oc2nnc(N3CCC3)s2)c1
2. Cn1nc(-c2ccccn2)cc1Oc1cc(C#N)ccc1-c1cc(CN)cn2ccnc12
3. Cc1nc(Oc2cc(C#N)ccc2-c2ccc(CC3(N)COC3)cn2)cc(N2CCCC2)n1

Response:
> 1000 nM
< 10 nM
10 to 1000 nM

====

Kindly supply the reported IC50 values for the records listed here.
Target: Human TRPC6 (Homo sapiens, UniProt Q9Y210)
Construct: expressed in transfected cells
Test: Evaluation of TRPC6 channel inhibitory activity (1), FLIPR Calcium 5 Assay Kit, OAG stimulation (Compound Nos. 1-1293)
Assay type: cell-based
Settings: Human TRPC6 stably-expressing cells, OAG 30 μM, FLIPR Calcium 5 Assay Kit; read-out: Inhibitory activity (pIC50 class) (converted)

// worked examples, IC50 included
[[record]]
smiles_code = "Cc1nc(Oc2cc(C#N)ccc2-n2cc([C@@H](O)CN)cn2)cc(OC2CCC2)n1"
parameter = "IC50"
result = "10 to 1000 nM"

[[record]]
smiles_code = "Cc1nc(Oc2cc(C#N)ccc2-n2cc([C@H](O)CN)cn2)cc(-c2ccccc2C)n1"
parameter = "IC50"
result = "10 to 1000 nM"

[[record]]
smiles_code = "Cc1nc(Oc2cc(C#N)ccc2-n2cc([C@H](O)CN)cn2)cc(-c2ccccc2C(F)(F)F)n1"
parameter = "IC50"
result = "> 1000 nM"

[[record]]
smiles_code = "Cc1nc(Oc2cc(C#N)ccc2-c2ccc(CC3(N)COC3)cn2)cc(N2CCC(F)CC2)n1"
parameter = "IC50"
result = "10 to 1000 nM"


// switching to the query molecule
Request: Specify the recorded IC50 for `Cc1nc(OCC(C)(C)C)cc(Oc2cc(C#N)ccc2-c2ccc(CCN)cc2)n1` , system: Human TRPC6 (Homo sapiens, UniProt Q9Y210).
Response: 10 to 1000 nM

Sourced from patent US20230167073A1
